- System: UO-31
- Run Description: NCI tumour cell line growth inhibition, 48 h
Active and inactive are the calls of the source. Rule as the data show it: active = GI50 up to about 1.1 µM and inactive = higher.
Metric: GI50

[
  {
    "Compound": "COc1cc(/N=N/c2cccc(S(N)(=O)=O)c2)c2ccccc2c1N",
    "Metric": "GI50",
    "Result": "15.3 µM (inactive)"
  },
  {
    "Compound": "CN1CCc2c1nc(-c1ccccc1)c1c2N(C)CC1",
    "Metric": "GI50",
    "Result": "14.7 µM (inactive)"
  }
]

// query GI50 value for entry CO/N=C(\C)c1cccc(Nc2c3ccccc3nc3occc23)c1
12.8 µM (inactive)

Return reported GI50; argument: Cc1ccc(S(=O)(=O)NC(=O)Nc2ccc(C(=O)O)c(O)c2)cc1
> 100 µM (inactive)

Suppose we examine the compound COc1cc2c(cc1O)C(Cc1ccc(OCc3ccccc3)c(OCc3ccccc3)c1)N(C(=O)NCCc1ccccc1)CC2 (stereo not given) ; what GI50 value has been reported?
69 µM (inactive)

----------
- System: KM12
- Run Description: NCI tumour cell line growth inhibition, 48 h
Activity calls are given as the source filed them. No stated cut-off is given here; in the data, active = GI50 up to about 1.1 µM and inactive = higher.
Entry note: the call must match one of active, inactive

Consider the worked cases shown below.
[
  {
    "Molecule": "CC(C)(C)n1c(=O)n2c(-c3ccccc3)c(-c3ccccc3)n2c1=O",
    "Assigned Label": "inactive"
  },
  {
    "Molecule": "COc1ccc2c([nH]c3cc(O)c(C)cc32)c1C=O",
    "Assigned Label": "inactive"
  },
  {
    "Molecule": "O=c1ccn(C2OC(CN(O)CCC3C(O)C(CO)OC3n3ccc(=O)[nH]c3=O)C(O)C2O)c(=O)[nH]1 (stereo unspecified)",
    "Assigned Label": "inactive"
  },
  {
    "Molecule": "COc1cc(C2C3=C(COC3=O)Oc3cc4c(cc32)OCO4)ccc1OC(C)=O (stereo unspecified)",
    "Assigned Label": "active"
  },
  {
    "Molecule": "C=C1C(=O)O[C@H]2[C@H](OC(C)=O)[C@@H](C)CCC/C(C)=C/CC[C@@]3(C)O[C@@H]3C[C@@H]12",
    "Assigned Label": "inactive"
  },
  {
    "Molecule": "N#Cc1c(N)nc2c(/N=N\\c3ccccc3)c(N)nn2c1Nc1ccccc1",
    "Assigned Label": "inactive"
  },
  {
    "Molecule": "CC(=O)CCCCCCCCCCCC[C@@H]1CC[C@H](C)[C@H](O)N1",
    "Assigned Label": "inactive"
  },
  {
    "Molecule": "OC[C@H]1O[C@@H](n2cnc3c(S)ncnc32)[C@H](O)[C@@H]1O",
    "Assigned Label": "inactive"
  }
]

Check the results log: what was the call for O=S1(=O)OCc2ccccc21 ?
inactive

Call for entry COc1ccc(NC(=S)c2ccoc2C)cc1CC(=O)OC(C)C :
inactive

Hi, do you know how CC(C)(C)n1[nH]c(=O)n(C(C)(C)C)c1=O came out in this test?
inactive

Tell me the recorded outcome of this test for COc1cc2ccc1OCc1cccc(n1)COc1ccc(cc1OC)/C=N\c1ccc(cc1)-c1ccc(cc1)/N=C\2 .
inactive

Dear all, I need the recorded test outcome for CC12CC3CC(C)(C1)CC(N=[N+]=[N-])(C3)C2 , thank you.
inactive

Given Cc1cc2cccc(Cl)c2nc1C(=O)c1ccccc1 , state the outcome it received in this test.
inactive

Identify the outcome logged in this assay for the molecule shown: CC(=O)N(C(=O)CC(=O)N1N=C(c2ccccc2)C(/N=N/c2ccccc2[N+](=O)[O-])C1=O)c1ccc(Cl)cc1 (stereo unspecified)
inactive

Outcome logged for O=C(c1ccccc1)c1c(C(F)(F)F)[n+]([O-])c2cc(F)c(F)cc2[n+]1[O-] in this assay:
active

Hello, I am checking results. What call was entered for CC1C=CC(C(N)C(=O)O)O1 (stereo unspecified) ?
inactive

Just curious, what result did COc1cc(C(c2c(O)c3ccccc3oc2=O)c2c(O)c3ccccc3oc2=O)ccc1O get here?
inactive

Could you check what this test reported for CC(=O)O/N=C(Cl)/C(Cl)=N/OC(C)=O ?
inactive

Assay result, entry O=C(c1ccc(F)cc1)c1cccc(C(=O)c2ccc(F)cc2)n1 — outcome?
inactive

Given COc1ccc(-n2c(=O)c3nc(S)[nH]c3n(-c3ccc(OC)cc3)c2=S)cc1 , state the outcome it received in this test.
inactive

----------
- Test system: SW-620
- Run Description: NCI tumour cell line growth inhibition, 48 h
Activity calls are given as the source filed them. No stated cut-off is given here; in the data, active = GI50 up to about 1.1 µM and inactive = higher.
Pick from active, inactive when you respond.

Here's what some known entries look like.
[
  {
    "Molecule": "Oc1ccc(Cl)cc1C1=Nn2c(COc3ccc4c(c3)CCCC4)nnc2SC1",
    "Assigned Label": "inactive"
  },
  {
    "Molecule": "Cc1ccc2[nH]/c(=N/S(=O)(=O)c3cc(C)c(Cl)cc3S)[nH]c2c1",
    "Assigned Label": "inactive"
  }
]

Field: outcome | Entry: O=C1C(Br)=CC2(C=C1Br)CCNC1=C2C2=NCCc3c[nH]c(c32)C1=O
active

Test call for this molecule, please: COc1cccc(NC(=O)CC(=O)Nc2cccc(OC)c2)c1
inactive

What outcome does the record of this test show for Cc1nnc(N/N=C2\C(=O)Nc3ccccc32)n1N ?
inactive

// param item: CC1(C)Oc2ccc(Cl)cc2C12CC2 ; yields the recorded call
inactive

----------
- Test system: U-251
- Run Description: NCI tumour cell line growth inhibition, 48 h
Calls of active or inactive are those of the source. No stated cut-off is given here; in the data, active = GI50 up to about 1.1 µM and inactive = higher.
Metric: GI50

Some compounds with recorded GI50:
[
  {
    "Compound": "ClCCN1CCO/C1=N/c1ccc2c(c1)CCCC2",
    "Result": "4.65 µM (inactive)"
  },
  {
    "Compound": "COCOC1/C=C/CCCCC2=C(C)C=C(C1)O2 (stereo not drawn)",
    "Result": "> 100 µM (inactive)"
  },
  {
    "Compound": "CCSc1nc(COC(=O)NC)c(COC(=O)NC)n1C",
    "Result": "> 84.9 µM (inactive)"
  }
]

Next up:
Name the recorded GI50 for O=c1oc2cc(O)ccc2c2[nH]c3cc(O)ccc3c12 .
21.4 µM (inactive)

----------
- System: LOX IMVI
- Run Description: NCI tumour cell line growth inhibition, 48 h
Calls of active or inactive are those of the source. Rule as the data show it: active = GI50 up to about 1.1 µM and inactive = higher.
Metric: GI50

The following compounds have reported results that may help.
[
  {
    "Compound": "C[C@@]1(CBr)C[C@@](C)(/C=C/Cl)[C@@H](Cl)C[C@H]1Cl",
    "Metric": "GI50",
    "Result": "11.5 µM (inactive)"
  },
  {
    "Compound": "Cc1ccc(S(=O)(=O)C2=C(C(C)C)N=NC2(C)C)cc1",
    "Metric": "GI50",
    "Result": "88.9 µM (inactive)"
  },
  {
    "Compound": "O=C(O)c1ccccc1/C=N\\N(CCO)C1=NCCN1",
    "Metric": "GI50",
    "Result": "> 100 µM (inactive)"
  },
  {
    "Compound": "C=C(C)CCC(=O)[C@](C)(O)[C@H]1[C@H](O)C[C@@]2(C)[C@@H]3CCc4c(cc(OC5OC(CO)C(O)C(O)C5O)c(O)c4C)C3(C)C(=O)C[C@]12C (some centres undefined)",
    "Metric": "GI50",
    "Result": "> 100 µM (inactive)"
  }
]

Please give the measured GI50 for this compound: COc1cc2ccc1OCc1cccc(n1)COc1ccc(cc1OC)/C=N\c1ccc(cc1)-c1ccc(cc1)/N=C\2
> 100 µM (inactive)

Requested read-out: GI50. Entry: Nc1n[n+]([O-])c2ccc(Cl)cc2[n+]1[O-]
25.1 µM (inactive)

I am curious: what GI50 value has been reported for Cc1c(C)c2ccc(O)cc2[nH]c1=O ?
> 100 µM (inactive)

What does the data say about its GI50? Entry: CS(=O)(=O)O[C@H]1[C@H](O)c2ccccc2[C@@H]1N=[N+]=[N-]
> 100 µM (inactive)

Could you tell me which GI50 is on file for O=C1CSC(c2ccc([N+](=O)[O-])cc2)N1c1ccc(-n2c(-c3ccccc3)nc3ccccc3c2=O)cc1 (centres undefined) ?
> 100 µM (inactive)

----------
- Tested on: IGROV-1
- Run Description: NCI tumour cell line growth inhibition, 48 h
Active and inactive are the calls of the source. Rule as the data show it: active = GI50 up to about 1.1 µM and inactive = higher.
Hello, when you answer, please use one of the following outcomes: active, inactive

Please review the following examples before continuing.
[
  {
    "Compound": "COc1ccc(/N=N/C(=O)NC(CC(C)C)C(=O)NCC(=O)O)cc1 (stereo unspecified)",
    "Assigned Label": "inactive"
  },
  {
    "Compound": "CCCC(=O)c1ccc2c(ccc(=O)n2C)c1",
    "Assigned Label": "inactive"
  },
  {
    "Compound": "O=C1C=CC2OC(c3ccccc3)C(O)C2O1 (stereo unspecified)",
    "Assigned Label": "inactive"
  }
]

GET /call?item= CS(=O)(=O)c1nc(-c2cc3c(c(S(C)(=O)=O)n2)CCC3)cc2c1CCCC2 returns the recorded outcome of this test.
inactive

Give the logged outcome of this assay for the following compound: Cc1n(CC(C)C)c2c([n+]1C)C(=O)c1ccccc1C2=O
active

Please indicate how the test categorized CCOP(=O)(OCC)C(c1ccc(F)cc1)N(C(=O)NC(F)(F)F)c1cccc(C(F)(F)F)c1 (stereo unspecified) .
inactive

Tell me the recorded outcome of this test for COc1ccc(OC)c(/C=C2/C(=O)N/C(=N\C(C)=O)N2C)c1 .
inactive

For this compound, state the assay outcome: COC(=O)[C@]12CSC[C@H]1C[C@H](c1ccc(N(C)C)cc1)N2
inactive

Status in this test for CCC(=O)N(c1ccccc1)C(C)CN1CCC(O)(c2cccc(C(F)(F)F)c2)CC1 (stereo unspecified) ?
inactive

What call does the record list for CC(C)(C)n1c(=O)n2c(-c3ccccc3)c(-c3ccccc3)n2c1=O ?
inactive

Just curious, what result did CC(C)=CCC[C@@H](C)C1=C(O)C(=O)C(C)=C(c2c(I)c(=O)n(C)c(=O)n2C)C1=O get here?
inactive

Tell me the recorded outcome of this test for CC(=O)OC1C=C(C=O)C(O)(C=O)C2(C)CCCC(C)(C)C12 (stereo unspecified) .
inactive

Any idea what this test logged for N#Cc1nnn(C2CCCCC2)c1O ?
inactive

What outcome does the record of this test show for Cc1cccc(N2CCN(S(=O)(=O)c3ccc(Cl)cc3)C2=N)c1C ?
inactive

Which result was noted for this compound in the test: O=C(c1cc2ccccc2o1)N(Cc1ccccc1)c1ccccc1
inactive

Which outcome was entered for the compound O=C1C(Cl)=C(Cl)C(=O)N1c1ccccc1Cl in this test?
inactive

Outcome? CCOC(=O)/C=C(/C(=O)OCC)n1cc(C)c(=O)n(Cc2cnnn2CCCCOC(C)=O)c1=O
inactive
